- SYSTEM_NAME: UniProt P08183
- TEST_METHOD_NOTES: Inhibition of MDR1-mediated calcein-AM extrusion (calcein accumulation) in 3T3 MDR and K562 MDR cells
pIC50: −log10 of the molar value.
Entries and their pIC50 values follow.

Below: 4 compounds and their reported pIC50.
Lookup: Entry C=C(CC)C(=O)c1ccc(OCC(=O)O)c(Cl)c1Cl has what pIC50?
Found: < 3.10

Lookup: Entry CCCN(CCC)S(=O)(=O)c1ccc(C(=O)O)cc1 has what pIC50?
Found: < 2.70

Lookup: Entry O=c1c(-c2ccc(O)cc2)coc2cc(O)cc(O)c12 has what pIC50?
Found: < 3.00

Lookup: Entry CCc1oc2ccccc2c1C(=O)c1cc(Br)c(O)c(Br)c1 has what pIC50?
Found: < 3.30

Others:
Lookup: Entry O=C1C(CC[S+]([O-])c2ccccc2)C(=O)N(c2ccccc2)N1c1ccccc1 (stereo not shown) has what pIC50?
Found: < 2.70

Lookup: Entry CCN1C(=O)C=CC1=O [NEM, N-ethylmaleimide] has what pIC50?
Found: < 4.30

Lookup: Entry CC[C@H]1/C=C/C=C/C[C@@H](C)[C@H](O)[C@@](C)(O)C(=O)[C@@H](C)[C@H](O)[C@@H](C)C(=O)[C@@H](C)[C@H](O)[C@@H](C)/C=C/C(=O)O[C@@H]2[C@H](C)[C@H](CC1)O[C@]1(CC[C@H](C)[C@H](C[C@@H](C)O)O1)[C@H]2C has what pIC50?
Found: 5.70 to 6.00

Lookup: Entry COc1ccc2c(c1)c(CC(=O)O)c(C)n2C(=O)c1ccc(Cl)cc1 has what pIC50?
Found: < 3.10

Lookup: Entry Clc1ccc(COC(Cn2ccnc2)c2ccc(Cl)cc2Cl)cc1 (stereo not shown) has what pIC50?
Found: 5.52 to 6.00

Lookup: Entry O=C(O)CCCc1ccc(N(CCCl)CCCl)cc1 has what pIC50?
Found: < 3.30

###

- SYSTEM_NAME: MDR1 (Homo sapiens)
- Sequence (P08183 whole entry): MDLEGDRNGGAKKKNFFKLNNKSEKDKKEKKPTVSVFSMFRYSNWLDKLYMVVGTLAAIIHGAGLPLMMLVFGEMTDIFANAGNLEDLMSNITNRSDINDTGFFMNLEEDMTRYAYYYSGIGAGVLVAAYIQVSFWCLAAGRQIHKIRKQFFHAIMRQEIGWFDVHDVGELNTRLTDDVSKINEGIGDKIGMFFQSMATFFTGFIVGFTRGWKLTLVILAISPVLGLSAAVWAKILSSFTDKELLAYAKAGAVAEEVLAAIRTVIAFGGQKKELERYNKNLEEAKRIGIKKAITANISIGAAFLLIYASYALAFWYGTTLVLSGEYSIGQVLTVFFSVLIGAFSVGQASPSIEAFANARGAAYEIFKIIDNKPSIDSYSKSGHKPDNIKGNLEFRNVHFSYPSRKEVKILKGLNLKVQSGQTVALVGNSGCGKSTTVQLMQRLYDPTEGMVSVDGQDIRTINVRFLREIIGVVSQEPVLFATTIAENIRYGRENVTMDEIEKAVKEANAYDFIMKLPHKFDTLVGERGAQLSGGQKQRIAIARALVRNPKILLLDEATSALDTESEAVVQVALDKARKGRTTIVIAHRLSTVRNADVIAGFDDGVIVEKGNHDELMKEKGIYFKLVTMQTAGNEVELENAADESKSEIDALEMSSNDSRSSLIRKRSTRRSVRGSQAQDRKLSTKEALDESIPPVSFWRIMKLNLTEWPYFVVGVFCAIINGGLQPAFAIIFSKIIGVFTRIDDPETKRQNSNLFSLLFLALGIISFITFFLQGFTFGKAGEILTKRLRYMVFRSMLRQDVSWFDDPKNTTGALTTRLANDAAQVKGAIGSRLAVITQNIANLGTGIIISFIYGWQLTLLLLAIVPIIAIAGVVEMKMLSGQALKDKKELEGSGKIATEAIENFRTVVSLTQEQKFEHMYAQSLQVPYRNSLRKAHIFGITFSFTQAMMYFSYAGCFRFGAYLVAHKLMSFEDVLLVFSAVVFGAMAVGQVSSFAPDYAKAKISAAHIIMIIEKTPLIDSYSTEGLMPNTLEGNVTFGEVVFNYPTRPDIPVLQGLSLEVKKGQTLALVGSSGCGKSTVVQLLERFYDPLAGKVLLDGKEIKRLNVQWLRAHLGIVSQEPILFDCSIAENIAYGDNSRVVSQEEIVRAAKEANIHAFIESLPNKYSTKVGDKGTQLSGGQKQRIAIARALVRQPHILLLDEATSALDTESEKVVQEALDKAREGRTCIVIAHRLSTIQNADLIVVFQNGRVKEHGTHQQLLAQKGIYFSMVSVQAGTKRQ
- TEST_METHOD_NOTES: Inhibition of MDR1-mediated calcein-AM extrusion (calcein accumulation) in 3T3 MDR and K562 MDR cells
- REPORTED_CONDITIONS: read-out: IC50 MDR1; inhibition of MDR1-mediated calcein-AM extrusion; 3T3 MDR and K562 MDR cells; range of at least 3 independent experiments; > = 50% inhibition not achieved (a solubility problem, b esterase inhibition)
pIC50: −log10 of the molar value.
RECORDED_METRIC: pIC50

Lookup: Entry CCCCC[C@H](O)/C=C/[C@H]1C=CC(=O)[C@@H]1CCCCCCC(=O)O [Prostaglandin A1] has what pIC50?
Found: < 4.00

Others:
Lookup: Entry O=[N+]([O-])c1ccc(O)c([N+](=O)[O-])c1 [2,4-DNP] has what pIC50?
Found: < 3.70

Lookup: Entry C[CH2][Hg][S]c1ccccc1C(=O)[O-].[Na+] [Merthiolate] has what pIC50?
Found: < 3.70

Lookup: Entry O=C1OC(c2ccc(O)c(S(=O)(=O)O)c2)(c2ccc(O)c(S(=O)(=O)O)c2)c2c(Br)c(Br)c(Br)c(Br)c21 [Bromosulfophthalein] has what pIC50?
Found: < 3.00

###

- SYSTEM_NAME: MRP (Homo sapiens)
- Construct: endogenous in cells
- Sequence (P33527 whole entry): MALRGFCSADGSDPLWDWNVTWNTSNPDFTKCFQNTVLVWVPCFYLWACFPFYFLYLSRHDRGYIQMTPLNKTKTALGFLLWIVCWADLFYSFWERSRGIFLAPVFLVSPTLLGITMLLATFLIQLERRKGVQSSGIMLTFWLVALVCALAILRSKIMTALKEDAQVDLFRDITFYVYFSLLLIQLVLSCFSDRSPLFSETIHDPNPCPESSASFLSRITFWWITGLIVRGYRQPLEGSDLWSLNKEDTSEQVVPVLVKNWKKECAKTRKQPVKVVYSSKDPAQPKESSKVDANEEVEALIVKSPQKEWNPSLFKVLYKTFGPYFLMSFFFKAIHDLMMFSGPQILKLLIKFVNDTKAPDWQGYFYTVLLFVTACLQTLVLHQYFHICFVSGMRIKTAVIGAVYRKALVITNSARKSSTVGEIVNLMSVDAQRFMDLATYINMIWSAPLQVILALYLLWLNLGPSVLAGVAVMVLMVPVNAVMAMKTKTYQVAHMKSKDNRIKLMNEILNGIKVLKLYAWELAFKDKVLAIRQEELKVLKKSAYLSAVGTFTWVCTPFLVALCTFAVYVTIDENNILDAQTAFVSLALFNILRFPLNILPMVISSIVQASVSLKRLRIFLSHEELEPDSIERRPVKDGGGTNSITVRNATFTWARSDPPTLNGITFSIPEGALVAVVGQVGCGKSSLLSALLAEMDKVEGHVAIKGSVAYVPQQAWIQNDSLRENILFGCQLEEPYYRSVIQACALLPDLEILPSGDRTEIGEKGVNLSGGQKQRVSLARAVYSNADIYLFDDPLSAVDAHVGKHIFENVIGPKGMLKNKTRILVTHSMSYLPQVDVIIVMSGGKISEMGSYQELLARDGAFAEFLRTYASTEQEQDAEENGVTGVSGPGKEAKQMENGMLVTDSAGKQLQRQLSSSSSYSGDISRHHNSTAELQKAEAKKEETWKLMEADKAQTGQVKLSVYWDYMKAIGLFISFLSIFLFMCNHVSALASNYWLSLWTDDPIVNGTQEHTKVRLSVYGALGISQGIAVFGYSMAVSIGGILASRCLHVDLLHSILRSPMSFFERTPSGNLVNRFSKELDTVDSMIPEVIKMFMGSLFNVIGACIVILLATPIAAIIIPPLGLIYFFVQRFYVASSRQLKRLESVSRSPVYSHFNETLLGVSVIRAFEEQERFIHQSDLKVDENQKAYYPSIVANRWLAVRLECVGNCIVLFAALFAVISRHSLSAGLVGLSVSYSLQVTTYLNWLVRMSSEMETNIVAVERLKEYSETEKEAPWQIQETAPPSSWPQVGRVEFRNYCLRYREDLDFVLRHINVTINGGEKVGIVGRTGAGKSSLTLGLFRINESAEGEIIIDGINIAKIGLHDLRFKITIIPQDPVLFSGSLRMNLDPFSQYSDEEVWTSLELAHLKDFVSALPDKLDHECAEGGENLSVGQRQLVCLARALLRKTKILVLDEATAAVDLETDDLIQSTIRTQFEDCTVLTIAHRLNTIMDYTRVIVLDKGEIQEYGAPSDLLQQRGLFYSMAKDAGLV
- TEST_METHOD_NOTES: Inhibition of MRP-mediated calcein-AM extrusion (calcein accumulation) in S1MRP and HL60 ADR cells
- Assay type: cell-based
- REPORTED_CONDITIONS: inhibition of MRP-mediated calcein-AM extrusion; S1MRP and HL60 ADR cells; range of at least 3 independent experiments with each cell line; read-out: IC50 MRP
pIC50: −log10 of the molar value.
RECORDED_METRIC: pIC50

Below: 6 molecules and their reported pIC50.
Lookup: Entry N#CC(C#N)=NNc1cccc(Cl)c1 has what pIC50?
Found: 4.52 to 5.00

Lookup: Entry CCCN(CCC)S(=O)(=O)c1ccc(C(=O)O)cc1 has what pIC50?
Found: 3.10 to 3.30

Lookup: Entry CCCCC[C@H](O)/C=C/[C@H]1C=CC(=O)[C@@H]1CCCCCCC(=O)O has what pIC50?
Found: 5.30 to 5.52

Lookup: Entry CC[C@]1(O)C[C@@H]2CN(CCc3c([nH]c4ccccc34)[C@@](C(=O)OC)(c3cc4c(cc3OC)N(C)[C@H]3[C@@](O)(C(=O)OC)[C@H](OC(C)=O)[C@]5(CC)C=CCN6CC[C@]43[C@@H]65)C2)C1 has what pIC50?
Found: 5.30 to 5.70

Lookup: Entry O=c1c(-c2ccc(O)cc2)coc2cc(O)cc(O)c12 has what pIC50?
Found: 3.70 to 3.82

Lookup: Entry CC[C@H]1/C=C/C=C/C[C@@H](C)[C@H](O)[C@@](C)(O)C(=O)[C@@H](C)[C@H](O)[C@@H](C)C(=O)[C@@H](C)[C@H](O)[C@@H](C)/C=C/C(=O)O[C@@H]2[C@H](C)[C@H](CC1)O[C@]1(CC[C@H](C)[C@H](C[C@@H](C)O)O1)[C@H]2C has what pIC50?
Found: 5.70 to 6.00

Would you kindly look at the next entry?
Lookup: Entry O=C1OC(c2ccc(O)c(S(=O)(=O)O)c2)(c2ccc(O)c(S(=O)(=O)O)c2)c2c(Br)c(Br)c(Br)c(Br)c21 has what pIC50?
Found: 3.82 to 4.00
